system: MOLM-13 cells; assay: Cell viability assay (CellTiter-Glo) in MOLM-13 cells, alone or with gilteritinib; format: cell-based; conditions: Homo sapiens, MOLM-13, 72 h, MOLM-13 cells, compound alone (without gilteritinib), three days, CellTiter-Glo; read-out: MOLM-13 IC50
pIC50: −log10 of the molar value.
Item-by-item account of pIC50

Below, 5 molecules whose answers are already recorded.
MOLECULE: O=C1CCC(N2C(=O)c3ccc(NCCC[C@H]4C[C@@H](n5cc(-c6cnc7cc(N8CCOCC8)ccc7n6)cn5)C4)cc3C2=O)C(=O)N1 (some centres unmarked)
TARGET: MOLM-13 cells
PARAMETER MEASURED: pIC50
MEASUREMENT: < 6.00
//
MOLECULE: O=C1CCC(N2C(=O)c3ccc(NC[C@H]4C[C@H](n5cc(-c6cc(F)ccn6)c(C6CC6)n5)C4)cc3C2=O)C(=O)N1 (some centres unmarked)
TARGET: MOLM-13 cells
PARAMETER MEASURED: pIC50
MEASUREMENT: < 6.00
//
MOLECULE: O=C1CCC(N2Cc3c(Nc4ccnc(Nc5cccc(N6CCC(N7CCCCC7)CC6)c5)n4)cccc3C2=O)C(=O)N1 (centres unmarked)
TARGET: MOLM-13 cells
PARAMETER MEASURED: pIC50
MEASUREMENT: < 6.00
//
MOLECULE: O=C1CCC(N2Cc3c(OCc4ccc(CN5CCC(n6cc(-c7cnc8ccccc8n7)cn6)CC5)cc4)cccc3C2=O)C(=O)N1 (centres unmarked)
TARGET: MOLM-13 cells
PARAMETER MEASURED: pIC50
MEASUREMENT: < 6.00
//
MOLECULE: O=C(CC1CCCC(N2CCC(n3cc(-c4cnc5ccccc5n4)cn3)CC2)C1)NCc1ccc2c(c1)CN(C1CCC(=O)NC1=O)C2=O (centres unmarked)
TARGET: MOLM-13 cells
PARAMETER MEASURED: pIC50
MEASUREMENT: < 6.00

What pIC50 value was documented for this molecule, O=C(CCC(F)(F)C(=O)N1CCC(n2cc(-c3cnc4ccccc4n3)cn2)CC1)NCc1ccc2c(c1)CN(C1CCC(=O)NC1=O)C2=O (centres unmarked) ? 6.00 to 7.00

Name the recorded pIC50 for O=C1CCC(N2C(=O)c3ccc(NCCC[C@H]4C[C@H](n5cc(-c6cnc7ccc(C(F)(F)F)cc7n6)cn5)C4)cc3C2=O)C(=O)N1 (some centres unmarked) . 7.00 to 8.00

Dear colleague, I am looking for the recorded pIC50 of the following molecule: O=C1CCC(N2C(=O)c3ccc(NCC45CC(C(=O)N6CCC(n7cc(-c8cnc9ccccc9n8)cn7)CC6)(C4)C5)cc3C2=O)C(=O)N1 (centres unmarked) < 6.00
